measured target: Protein kinase C alpha type (Homo sapiens, UniProt P17252)
protocol notes: Affinity for protein kinase C alpha
pKi: −log10 of the molar value.
observable: pKi

Some entries whose results are on file:
CCCCCCCC/C=C1\CC([C@H](CO)OC(=O)CCCCCCCC)OC1=O (some centres undefined) : 5.92
CCCCCCCC/C=C/CCCCCCCC(=O)OCC1(CO)CCC(=O)O1 (centres undefined) : 7.02
CCCCCCCCC/C=C1/CC(CO)(COC(=O)CC(C)C)OC1=O (centres undefined) : 7.89
CCCCCCCC/C=C1/CC([C@H](CO)OC(=O)CC(C)C)OC1=O (some centres undefined) : 6.25
CCCCCCCC/C=C1/CC([C@H](CO)OC(=O)CCCCCCCC)OC1=O (some centres undefined) : 5.75

[P] CCCCCCC/C=C/CCCCCCC/C=C1/CC(CO)(COC(C)=O)OC1=O (centres undefined)
[Q] CCCCCCCCCCCCCC(=O)O[C@@H](CO)C1CCC(=O)O1 (some centres undefined)
Lookup: Thinking about recorded pKi values, which is higher, P or Q ? Give the label of your selection.
Found: P
(P: 7.62, Q: 6.00)

[1] CCCCCCCCCC(=O)OCC1(CO)C/C(=C/CC(C)C)C(=O)O1 (centres undefined)
[2] CCCCCCCC/C=C1\CC([C@H](CO)OC(=O)CC(C)C)OC1=O (some centres undefined)
Lookup: Would you kindly point out which of 1 and 2 has the smaller pKi figure? I would appreciate it if you answered with the label of your choice.
Found: 2

Hey, just so you know, these numbers are from ChEMBL document CHEMBL1133159.
